Origin of the recorded values: patent US11603349B2

- method: MTS tetrazolium reduction cell viability assay
- condition_details: rat, rat mesangial cells (1097/IRMC cells), TGF-β1 stimulated, CC50 (μM), vs 1% DMSO vehicle
observable: log10 of CC50 at 48 h (log10 of the value in µM)
Quick note: numbers are log10 of CC50 at 48 h, with µM as the unit.

query: Which log10 of CC50 at 48 h reading was recorded for the molecule C#CCOc1ccc(/C=C/C(=O)Nc2ccccc2C#N)c(OC2CCN(C)C2)c1OC (stereo not drawn) ?
result: 1.40

query: Need log10 of CC50 at 48 h, item C#CCOc1ccc(/C=C/C(=O)Nc2ccccc2C(=O)NCCc2ccccn2)cc1OC
result: 1.72

query: What value of log10 of CC50 at 48 h has been reported for the following molecule? C#CCOc1ccc(/C=C/C(=O)Nc2ccccc2-c2noc(=O)[nH]2)cc1OC
result: 2.09

query: Request the reported log10 of CC50 at 48 h associated with C#CCOc1ccc(/C=C/C(=O)Nc2ccccc2C(=O)NC2COC2)cc1OC
result: 2.37

query: Find the recorded log10 of CC50 at 48 h belonging to C#CCOc1ccc(/C=C/C(=O)Nc2ccccc2C(=O)NCc2ccncc2)cc1OC and report it.
result: 2.49
